Assay: Pharmacokinetics in rat
Format: in vivo
Details: plasma, 10 mg/kg, PO (1% methylcellulose), 10 mpk
measurement_kind: Cmax (µM)
# number only, unit µM dropped from output

Query: What measured Cmax goes with C[C@@H](NC(=O)Cc1ccc(C2CC2)cc1)c1ccc(OCC(F)(F)F)cn1 ?
Response: 7.6

====

Molecular target: α1I (Homo sapiens, UniProt Q9P0X4)
Sequence (Q9P0X4 whole entry): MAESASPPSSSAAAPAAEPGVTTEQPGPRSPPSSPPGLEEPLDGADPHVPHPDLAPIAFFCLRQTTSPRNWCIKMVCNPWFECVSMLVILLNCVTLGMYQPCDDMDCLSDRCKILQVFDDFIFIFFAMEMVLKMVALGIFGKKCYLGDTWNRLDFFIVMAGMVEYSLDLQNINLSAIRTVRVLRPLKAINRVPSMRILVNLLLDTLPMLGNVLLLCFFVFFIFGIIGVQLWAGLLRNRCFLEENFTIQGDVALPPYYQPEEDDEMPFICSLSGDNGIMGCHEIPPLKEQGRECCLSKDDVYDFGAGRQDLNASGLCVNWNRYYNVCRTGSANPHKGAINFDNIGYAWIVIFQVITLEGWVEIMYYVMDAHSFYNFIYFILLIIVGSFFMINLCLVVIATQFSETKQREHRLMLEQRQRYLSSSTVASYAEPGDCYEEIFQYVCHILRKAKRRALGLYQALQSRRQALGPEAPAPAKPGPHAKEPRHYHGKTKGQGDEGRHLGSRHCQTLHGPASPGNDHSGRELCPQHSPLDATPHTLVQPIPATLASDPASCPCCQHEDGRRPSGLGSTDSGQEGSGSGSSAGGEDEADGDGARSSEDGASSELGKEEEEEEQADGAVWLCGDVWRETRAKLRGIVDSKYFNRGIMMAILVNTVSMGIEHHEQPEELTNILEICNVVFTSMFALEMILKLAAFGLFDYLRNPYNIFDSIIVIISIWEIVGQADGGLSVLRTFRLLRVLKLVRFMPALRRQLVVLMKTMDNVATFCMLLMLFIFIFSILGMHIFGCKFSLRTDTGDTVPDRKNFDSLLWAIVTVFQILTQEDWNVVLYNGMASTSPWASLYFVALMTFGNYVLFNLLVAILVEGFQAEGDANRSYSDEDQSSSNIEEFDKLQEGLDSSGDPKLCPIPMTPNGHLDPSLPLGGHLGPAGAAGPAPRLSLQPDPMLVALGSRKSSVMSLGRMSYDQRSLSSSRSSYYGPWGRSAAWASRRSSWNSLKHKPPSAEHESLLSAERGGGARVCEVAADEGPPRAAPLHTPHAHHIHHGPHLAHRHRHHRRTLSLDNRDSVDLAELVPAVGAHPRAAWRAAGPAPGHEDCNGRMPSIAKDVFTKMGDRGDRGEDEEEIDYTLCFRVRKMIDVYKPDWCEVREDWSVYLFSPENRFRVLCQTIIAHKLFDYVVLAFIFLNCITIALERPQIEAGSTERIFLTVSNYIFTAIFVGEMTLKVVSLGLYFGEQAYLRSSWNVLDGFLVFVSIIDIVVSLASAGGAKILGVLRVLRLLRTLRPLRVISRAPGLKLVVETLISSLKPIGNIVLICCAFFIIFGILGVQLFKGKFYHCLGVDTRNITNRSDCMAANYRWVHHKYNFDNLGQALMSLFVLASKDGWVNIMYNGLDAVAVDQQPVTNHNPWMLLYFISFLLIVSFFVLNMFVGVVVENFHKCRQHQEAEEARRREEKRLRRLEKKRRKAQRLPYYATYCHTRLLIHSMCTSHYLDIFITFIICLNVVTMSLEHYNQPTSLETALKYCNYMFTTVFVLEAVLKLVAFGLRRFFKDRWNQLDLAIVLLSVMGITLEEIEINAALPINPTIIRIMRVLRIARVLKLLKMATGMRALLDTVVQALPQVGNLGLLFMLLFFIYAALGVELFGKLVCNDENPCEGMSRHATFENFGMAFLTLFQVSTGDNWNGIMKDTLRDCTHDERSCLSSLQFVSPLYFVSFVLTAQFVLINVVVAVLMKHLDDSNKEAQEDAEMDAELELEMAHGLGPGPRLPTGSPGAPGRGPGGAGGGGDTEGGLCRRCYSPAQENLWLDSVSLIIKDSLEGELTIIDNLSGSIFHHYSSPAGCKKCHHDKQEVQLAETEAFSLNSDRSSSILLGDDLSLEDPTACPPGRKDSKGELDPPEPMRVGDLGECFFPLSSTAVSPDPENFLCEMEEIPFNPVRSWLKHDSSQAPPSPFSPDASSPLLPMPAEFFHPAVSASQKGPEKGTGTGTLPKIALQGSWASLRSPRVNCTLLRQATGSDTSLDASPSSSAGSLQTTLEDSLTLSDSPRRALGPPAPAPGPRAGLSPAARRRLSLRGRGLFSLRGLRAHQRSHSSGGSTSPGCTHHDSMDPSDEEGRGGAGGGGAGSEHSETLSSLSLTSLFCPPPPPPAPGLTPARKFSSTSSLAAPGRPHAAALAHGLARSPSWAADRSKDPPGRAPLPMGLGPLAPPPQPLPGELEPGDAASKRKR
Test: α1I VC (voltage clamp) at set holding potentials
Type: cell-based
Settings: −100 mV, read-out: α1I VC (−100 mV)
measurement_kind: pIC50
// pIC50 is dimensionless: -log10 of concentration (M)

Query: # value lookup — system α1I (Homo sapiens, UniProt Q9P0X4), readout pIC50, item C[C@@H](NC(=O)Cc1ccc(C2CC2)cc1)c1ccc(OCC(F)(F)F)cn1
Response: 5.38
